Could you please report measured viability, T/C for the items listed next?
Test system: NCI-H23 complex spheroids with HUVEC/MSC, viability
Test: Anticancer human tumor NCI-H23 cell line growth inhibition [RAS];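 note: spheroids exposed to compound for 7 days; 100% = DMSO vehicle control viability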
Details: second compound 10 µM; first compound 0.0316 µM; stronger effect = lower value
Field: numeric (%). Do not append units.

Sample CC1(O)CCCC1n1c(=O)c(C(F)F)cc2cnc(NC3CCN(S(C)(=O)=O)CC3)nc21 (configuration not stated) + C#Cc1c(F)ccc2cc(O)cc(-c3ncc4c(N5CC6CCC(C5)N6)nc(OCC56CCCN5CC(F)C6)nc4c3F)c12 — what was its viability, T/C? 32.6

And the next one, O=C(c1ccc(F)c(F)c1Nc1ccc(I)cc1F)N1CC(O)([C@@H]2CCCCN2)C1 + C#Cc1c(F)ccc2cc(O)cc(-c3ncc4c(N5CC6CCC(C5)N6)nc(OCC56CCCN5CC(F)C6)nc4c3F)c12 ? 31.6

And the next one, NC1c2ccccc2OC12CCN(c1cnc3c(N4CCCc5ncccc54)n[nH]c3n1)CC2 (configuration not stated) + C#Cc1c(F)ccc2cc(O)cc(-c3ncc4c(N5CC6CCC(C5)N6)nc(OCC56CCCN5CC(F)C6)nc4c3F)c12 ? 28.4

And the next one, C=CC(=O)Nc1cc(Nc2nccc(-c3cn(C)c4ccccc34)n2)c(OC)cc1N(C)CCN(C)C + C#Cc1c(F)ccc2cc(O)cc(-c3ncc4c(N5CC6CCC(C5)N6)nc(OCC56CCCN5CC(F)C6)nc4c3F)c12 ? 36.1

And the next one, CCC(CC)c1cc(NC2CCC(N)C2)n2nccc2n1 (configuration not stated) + C#Cc1c(F)ccc2cc(O)cc(-c3ncc4c(N5CC6CCC(C5)N6)nc(OCC56CCCN5CC(F)C6)nc4c3F)c12 ? 36.7

And the next one, Cc1nc(N2CCC3(CC2)COC(C)C3N)c(CO)nc1Sc1ccnc(N)c1Cl (configuration not stated) + C#Cc1c(F)ccc2cc(O)cc(-c3ncc4c(N5CC6CCC(C5)N6)nc(OCC56CCCN5CC(F)C6)nc4c3F)c12 ? 38.1

And the next one, CC(C)NCC(C(=O)N1CCN(c2ncnc3c2C(C)CC3O)CC1)c1ccc(Cl)cc1 (configuration not stated) + C#Cc1c(F)ccc2cc(O)cc(-c3ncc4c(N5CC6CCC(C5)N6)nc(OCC56CCCN5CC(F)C6)nc4c3F)c12 ? 38.4

And the next one, Nc1ccn(C2OC(CO)C(O)C2(F)F)c(=O)n1 (configuration not stated) + C#Cc1c(F)ccc2cc(O)cc(-c3ncc4c(N5CC6CCC(C5)N6)nc(OCC56CCCN5CC(F)C6)nc4c3F)c12 ? 4.01

And the next one, C=CC(=O)N1CCN(c2nc(OCC3CCCN3C)nc3c(F)c(-c4nc(N)cc(C)c4C(F)(F)F)c(Cl)cc23)C(C)C1 (configuration not stated) + C#Cc1c(F)ccc2cc(O)cc(-c3ncc4c(N5CC6CCC(C5)N6)nc(OCC56CCCN5CC(F)C6)nc4c3F)c12 ? 42.4

And the next one, CCN1CCN(Cc2ccc(Nc3ncc(F)c(-c4cc(F)c5nc(C)n(C(C)C)c5c4)n3)nc2)CC1 + C#Cc1c(F)ccc2cc(O)cc(-c3ncc4c(N5CC6CCC(C5)N6)nc(OCC56CCCN5CC(F)C6)nc4c3F)c12 ? 26.5

And the next one, CC(C)n1nc(-c2ccc3oc(N)nc3c2)c2c(N)ncnc21 + C#Cc1c(F)ccc2cc(O)cc(-c3ncc4c(N5CC6CCC(C5)N6)nc(OCC56CCCN5CC(F)C6)nc4c3F)c12 ? 24.1

And the next one, C[C@@H](NC(=O)c1ncnc(N)c1Cl)c1ncc(C(=O)Nc2cc(C(F)(F)F)c(Cl)cn2)s1 + C#Cc1c(F)ccc2cc(O)cc(-c3ncc4c(N5CC6CCC(C5)N6)nc(OCC56CCCN5CC(F)C6)nc4c3F)c12 ? 38.7

----------
Could you please report measured viability, T/C for the items listed next?
Tested on: NCI-H23 complex spheroids with HUVEC/MSC, viability
Test: Anticancer human tumor NCI-H23 cell line growth inhibition [RAS];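 note: spheroids exposed to compound for 7 days; 100% = DMSO vehicle control viability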
Conditions: second compound 1 µM; first compound 0.316 µM; stronger effect = lower value
Field: numeric (%). Do not append units.

Sample Nc1ccn(C2OC(CO)C(O)C2(F)F)c(=O)n1 (configuration not stated) + C#Cc1c(F)ccc2cc(O)cc(-c3ncc4c(N5CC6CCC(C5)N6)nc(OCC56CCCN5CC(F)C6)nc4c3F)c12 — what was its viability, T/C? 5.26

And the next one, C=CC(=O)N1CCN(c2nc(OCC3CCCN3C)nc3c(F)c(-c4nc(N)cc(C)c4C(F)(F)F)c(Cl)cc23)C(C)C1 (configuration not stated) + C#Cc1c(F)ccc2cc(O)cc(-c3ncc4c(N5CC6CCC(C5)N6)nc(OCC56CCCN5CC(F)C6)nc4c3F)c12 ? 39.5

And the next one, Cc1nc(N2CCC3(CC2)COC(C)C3N)c(CO)nc1Sc1ccnc(N)c1Cl (configuration not stated) + C#Cc1c(F)ccc2cc(O)cc(-c3ncc4c(N5CC6CCC(C5)N6)nc(OCC56CCCN5CC(F)C6)nc4c3F)c12 ? 45.2

And the next one, CC(=O)OC12COC1CC(O)C1(C)C(=O)C(O)C3=C(C)C(OC(=O)C(O)C(NC(=O)OC(C)(C)C)c4ccccc4)CC(O)(C(OC(=O)c4ccccc4)C21)C3(C)C (configuration not stated) + C#Cc1c(F)ccc2cc(O)cc(-c3ncc4c(N5CC6CCC(C5)N6)nc(OCC56CCCN5CC(F)C6)nc4c3F)c12 ? 32

And the next one, CC(Nc1ccc2c(c1)OCCn1cc(N3C(=O)OCC3C(F)F)nc1-2)C(N)=O (configuration not stated) + C#Cc1c(F)ccc2cc(O)cc(-c3ncc4c(N5CC6CCC(C5)N6)nc(OCC56CCCN5CC(F)C6)nc4c3F)c12 ? 60.8

And the next one, CC(C)NCC(C(=O)N1CCN(c2ncnc3c2C(C)CC3O)CC1)c1ccc(Cl)cc1 (configuration not stated) + C#Cc1c(F)ccc2cc(O)cc(-c3ncc4c(N5CC6CCC(C5)N6)nc(OCC56CCCN5CC(F)C6)nc4c3F)c12 ? 73.6

And the next one, CCC(CC)c1cc(NC2CCC(N)C2)n2nccc2n1 (configuration not stated) + C=CC(=O)N1CCN(c2nc(OCC3CCCN3C)nc3c(F)c(-c4nc(N)cc(C)c4C(F)(F)F)c(Cl)cc23)C(C)C1 ? 41.1

----------
Tested on: NCI-H23 complex spheroids with HUVEC/MSC, viability
Test: Anticancer human tumor NCI-H23 cell line growth inhibition [RAS];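 note: spheroids exposed to compound for 7 days; 100% = DMSO vehicle control viability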
Conditions: second compound 0.03 µM; first compound 1 µM; stronger effect = lower value
Text: RAS pathway inhibitors in Combinations in Complex Spheroids A high-throughput screen of multi-cell type tumor spheroids was designed to identify active combinations of RAS pathway inhibitors and targeted small molecules. Complex spheroids include a stromal component modeled by human endothelial cells (HUVEC) and fibroblasts modeled by human mesenchymal stem cells (MSCs). […] Compounds. […] If the clinical Cmax for an agent had not been determined, the highest concentration tested was 10 microM. […]
Could you please report measured viability, T/C for the items listed next?

Sample CC(=O)OC12COC1CC(O)C1(C)C(=O)C(O)C3=C(C)C(OC(=O)C(O)C(NC(=O)OC(C)(C)C)c4ccccc4)CC(O)(C(OC(=O)c4ccccc4)C21)C3(C)C (stereo not given) + CCn1c(-c2cc(N3CCN(C)CC3)cnc2C(C)OC)c2c3cc(ccc31)-c1csc(n1)CC(NC(=O)C1CC1C)C(=O)N1CCCC(N1)C(=O)OCC(C)(C)C2 — what was its viability, T/C? 12.5%

And the next one, CCC(CC)c1cc(NC2CCC(N)C2)n2nccc2n1 (stereo not given) + CCn1c(-c2cc(N3CCN(C)CC3)cnc2C(C)OC)c2c3cc(ccc31)-c1csc(n1)CC(NC(=O)C1CC1C)C(=O)N1CCCC(N1)C(=O)OCC(C)(C)C2 ? 28.3%

And the next one, C=CC(=O)Nc1cc(Nc2nccc(-c3cn(C)c4ccccc34)n2)c(OC)cc1N(C)CCN(C)C + CCn1c(-c2cc(N3CCN(C)CC3)cnc2C(C)OC)c2c3cc(ccc31)-c1csc(n1)CC(NC(=O)C1CC1C)C(=O)N1CCCC(N1)C(=O)OCC(C)(C)C2 ? 15%

And the next one, C=CC(=O)Nc1cc(Nc2nccc(-c3cn(C)c4ccccc34)n2)c(OC)cc1N(C)CCN(C)C + CCn1c(-c2cccnc2C(C)OC)c2c3cc(ccc31)N1CCOC(CC(NC(=O)C(C(C)C)N(C)C(=O)C3(F)CCN(C(=O)C#CC(C)(C)N(C)C)CC3)C(=O)N3CCCC(N3)C(=O)OCC(C)(C)C2)C1 ? 23.1%

And the next one, CC(=O)OC12COC1CC(O)C1(C)C(=O)C(O)C3=C(C)C(OC(=O)C(O)C(NC(=O)OC(C)(C)C)c4ccccc4)CC(O)(C(OC(=O)c4ccccc4)C21)C3(C)C (stereo not given) + CCn1c(-c2cccnc2C(C)OC)c2c3cc(ccc31)N1CCOC(CC(NC(=O)C(C(C)C)N(C)C(=O)C3(F)CCN(C(=O)C#CC(C)(C)N(C)C)CC3)C(=O)N3CCCC(N3)C(=O)OCC(C)(C)C2)C1 ? 9.41%

And the next one, CC1(O)CCCC1n1c(=O)c(C(F)F)cc2cnc(NC3CCN(S(C)(=O)=O)CC3)nc21 (stereo not given) + CCn1c(-c2cccnc2C(C)OC)c2c3cc(ccc31)N1CCOC(CC(NC(=O)C(C(C)C)N(C)C(=O)C3(F)CCN(C(=O)C#CC(C)(C)N(C)C)CC3)C(=O)N3CCCC(N3)C(=O)OCC(C)(C)C2)C1 ? 18.7%

And the next one, C[C@@H](NC(=O)c1ncnc(N)c1Cl)c1ncc(C(=O)Nc2cc(C(F)(F)F)c(Cl)cn2)s1 + CCn1c(-c2cc(N3CCN(C)CC3)cnc2C(C)OC)c2c3cc(ccc31)-c1csc(n1)CC(NC(=O)C1CC1C)C(=O)N1CCCC(N1)C(=O)OCC(C)(C)C2 ? 30.7%

And the next one, Cc1nc(N2CCC3(CC2)COC(C)C3N)c(CO)nc1Sc1ccnc(N)c1Cl (stereo not given) + CCn1c(-c2cc(N3CCN(C)CC3)cnc2C(C)OC)c2c3cc(ccc31)-c1csc(n1)CC(NC(=O)C1CC1C)C(=O)N1CCCC(N1)C(=O)OCC(C)(C)C2 ? 14.1%

And the next one, NC1c2ccccc2OC12CCN(c1cnc3c(N4CCCc5ncccc54)n[nH]c3n1)CC2 (stereo not given) + CCn1c(-c2cccnc2C(C)OC)c2c3cc(ccc31)N1CCOC(CC(NC(=O)C(C(C)C)N(C)C(=O)C3(F)CCN(C(=O)C#CC(C)(C)N(C)C)CC3)C(=O)N3CCCC(N3)C(=O)OCC(C)(C)C2)C1 ? 8.83%

And the next one, CCN1CCN(Cc2ccc(Nc3ncc(F)c(-c4cc(F)c5nc(C)n(C(C)C)c5c4)n3)nc2)CC1 + CCn1c(-c2cc(N3CCN(C)CC3)cnc2C(C)OC)c2c3cc(ccc31)-c1csc(n1)CC(NC(=O)C1CC1C)C(=O)N1CCCC(N1)C(=O)OCC(C)(C)C2 ? 14.5%

And the next one, Cc1nc(N2CCC3(CC2)COC(C)C3N)c(CO)nc1Sc1ccnc(N)c1Cl (stereo not given) + CCn1c(-c2cccnc2C(C)OC)c2c3cc(ccc31)N1CCOC(CC(NC(=O)C(C(C)C)N(C)C(=O)C3(F)CCN(C(=O)C#CC(C)(C)N(C)C)CC3)C(=O)N3CCCC(N3)C(=O)OCC(C)(C)C2)C1 ? 11.7%

And the next one, CC(Nc1ccc2c(c1)OCCn1cc(N3C(=O)OCC3C(F)F)nc1-2)C(N)=O (stereo not given) + CCn1c(-c2cccnc2C(C)OC)c2c3cc(ccc31)N1CCOC(CC(NC(=O)C(C(C)C)N(C)C(=O)C3(F)CCN(C(=O)C#CC(C)(C)N(C)C)CC3)C(=O)N3CCCC(N3)C(=O)OCC(C)(C)C2)C1 ? 18.3%

And the next one, CC(C)NCC(C(=O)N1CCN(c2ncnc3c2C(C)CC3O)CC1)c1ccc(Cl)cc1 (stereo not given) + CCn1c(-c2cccnc2C(C)OC)c2c3cc(ccc31)N1CCOC(CC(NC(=O)C(C(C)C)N(C)C(=O)C3(F)CCN(C(=O)C#CC(C)(C)N(C)C)CC3)C(=O)N3CCCC(N3)C(=O)OCC(C)(C)C2)C1 ? 20.4%

And the next one, C=CC(=O)N1CCN(c2nc(OCC3CCCN3C)nc3c(F)c(-c4nc(N)cc(C)c4C(F)(F)F)c(Cl)cc23)C(C)C1 (stereo not given) + CCn1c(-c2cc(N3CCN(C)CC3)cnc2C(C)OC)c2c3cc(ccc31)-c1csc(n1)CC(NC(=O)C1CC1C)C(=O)N1CCCC(N1)C(=O)OCC(C)(C)C2 ? 21.8%

And the next one, C[C@@H](NC(=O)c1ncnc(N)c1Cl)c1ncc(C(=O)Nc2cc(C(F)(F)F)c(Cl)cn2)s1 + CCn1c(-c2cccnc2C(C)OC)c2c3cc(ccc31)N1CCOC(CC(NC(=O)C(C(C)C)N(C)C(=O)C3(F)CCN(C(=O)C#CC(C)(C)N(C)C)CC3)C(=O)N3CCCC(N3)C(=O)OCC(C)(C)C2)C1 ? 29.3%
